Data origin, for the record: patent US6090610A

# method-description: Cytotoxity test, 3H-thymidine uptake, HeLa
# Format: cell-based
# test-settings: human, hela cells, read-out: IC50 (cytotoxity)
measure: CC50 at 96 h (µg/mL)
Write down the numeric answer in µg/mL and omit the unit.

Request the reported CC50 at 96 h associated with CC[C@@H]1/C=C(\C)C[C@H](C)C[C@H](OC)[C@H]2O[C@@](O)(C(=O)C(=O)N3CCCC[C@H]3C(=O)O[C@H](/C(C)=C/[C@@H]3CC[C@@H](O)[C@H](OC)C3)[C@H](C)[C@@H](O)CC1=O)[C@H](C)C[C@@H]2OC [Ascomycin, reference compound]
13

====

# method-description: Cytotoxity test, 3H-thymidine uptake, HEK-297
# Type: cell-based
# test-settings: human, hek-297 cells; HEK-297, 96 h; read-out: IC50 (cytotoxity)
measure: CC50 at 96 h

compound | CC50 at 96 h
CC[C@@H]1/C=C(\C)C[C@H](C)C[C@H](OC)[C@H]2O[C@@](O)(C(=O)C(=O)N3CCCC[C@H]3C(=O)O[C@H](/C(C)=C/[C@@H]3CC[C@@H](O)[C@H](OC)C3)[C@H](C)[C@@H](O)CC1=O)[C@H](C)C[C@@H]2OC [Ascomycin, reference compound] | 25 µg/mL

Next:
// CC50 at 96 h lookup, key: CCCCC(=O)OC1CC(OC(C)C(C)C(O)C(C)C(O)C(C)C2OC(=O)C=CCC(O)CC(O)CC(O)CCC(C)C(O)CC3(O)OC(CC(O)CC(OC(=O)CC(=O)O)CCCC(O)C4OC4C2C)CC(O)C3O)OC(C)C1O (centres unmarked) [0406-A]
> 100 µg/mL

====

# method-description: Cytotoxity test, 3H-thymidine uptake, YAC-1
# Format: cell-based
# test-settings: mouse, yac-1 cells; YAC-1, 96 h; read-out: IC50 (cytotoxity)
measure: CC50 at 96 h (µg/mL)
Unit µg/mL implied. Number only.

What value of CC50 at 96 h has been recorded for this entry: CC[C@@H]1/C=C(\C)C[C@H](C)C[C@H](OC)[C@H]2O[C@@](O)(C(=O)C(=O)N3CCCC[C@H]3C(=O)O[C@H](/C(C)=C/[C@@H]3CC[C@@H](O)[C@H](OC)C3)[C@H](C)[C@@H](O)CC1=O)[C@H](C)C[C@@H]2OC [Ascomycin, reference compound]
50

====

# method-description: Cytotoxity test, 3H-thymidine uptake, Cos-1
# Assay type: cell-based
# test-settings: monkey, cos-1 cells; Cos-1, 96 h; read-out: IC50 (cytotoxity)
measure: CC50 at 96 h (µg/mL)
Provide only the numeric value, understood in µg/mL.

Entry under review: CC[C@@H]1/C=C(\C)C[C@H](C)C[C@H](OC)[C@H]2O[C@@](O)(C(=O)C(=O)N3CCCC[C@H]3C(=O)O[C@H](/C(C)=C/[C@@H]3CC[C@@H](O)[C@H](OC)C3)[C@H](C)[C@@H](O)CC1=O)[C@H](C)C[C@@H]2OC [Ascomycin, reference compound] . Reported CC50 at 96 h?
58
